measurement-target: full-length NS3/NS4A-2 (HCV NS3 protease) (Hepatitis C virus genotype 1a)
Construct: Recombinant E. coli or Baculovirus full-length NS3 was diluted to 3.33 μM with assay buffer; made in house; host or cells: E. coli or baculovirus (BV) expression system
Sequence (P27958 1027-1657): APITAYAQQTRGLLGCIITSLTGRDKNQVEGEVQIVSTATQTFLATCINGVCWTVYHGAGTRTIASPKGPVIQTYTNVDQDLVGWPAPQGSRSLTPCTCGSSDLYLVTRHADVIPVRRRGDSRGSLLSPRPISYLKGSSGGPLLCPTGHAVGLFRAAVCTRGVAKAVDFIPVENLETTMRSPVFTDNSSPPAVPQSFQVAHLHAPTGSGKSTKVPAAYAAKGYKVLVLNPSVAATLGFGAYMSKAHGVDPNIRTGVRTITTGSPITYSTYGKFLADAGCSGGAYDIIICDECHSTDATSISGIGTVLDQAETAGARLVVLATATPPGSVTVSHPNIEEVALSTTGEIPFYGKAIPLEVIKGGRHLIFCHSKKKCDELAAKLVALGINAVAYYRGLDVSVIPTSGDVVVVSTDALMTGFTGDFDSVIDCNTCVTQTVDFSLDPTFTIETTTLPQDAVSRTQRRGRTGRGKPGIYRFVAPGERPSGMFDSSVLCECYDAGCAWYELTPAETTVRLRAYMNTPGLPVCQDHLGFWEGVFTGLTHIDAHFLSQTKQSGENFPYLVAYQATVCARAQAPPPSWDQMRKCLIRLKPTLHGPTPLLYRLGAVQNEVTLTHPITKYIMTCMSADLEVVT
protocol: NS3-NS4 protease assay / NS3 inhibition assay (RETS1 substrate, fluorescence kinetic read)
Assay type: biochemical
test-parameters: recombinant E. coli or Baculovirus full-length NS3 with NS4A-2; read-out: NS3-NS4 IC50
measured-parameter: IC50

| molecule | measurement-target | data-value |
| --- | --- | --- |
| CC(C)(C)C(O)C(=O)N[C@H]1CCCCC/C=C\[C@@H]2C[C@@]2(C(=O)NS(=O)(=O)C2CC2)NC(=O)[C@@H]2C[C@@H](OC(=O)N3Cc4cccc(F)c4C3)CN2C1=O (single isomer, unassigned) | full-length NS3/NS4A-2 (HCV NS3 protease) (Hepatitis C virus genotype 1a) | < 0.1 µM |
| CC(C)(C)OC(=O)N[C@H]1CCCCC/C=C\[C@@H]2C[C@@]2(C(=O)NS(=O)(=O)Cc2ccccc2)NC(=O)[C@@H]2CCCN2C1=O | full-length NS3/NS4A-2 (HCV NS3 protease) (Hepatitis C virus genotype 1a) | < 1 µM |
| O=C(N[C@H]1CCCCC/C=C\[C@@H]2C[C@@]2(C(=O)NS(=O)(=O)C2CC2)NC(=O)[C@@H]2CCCN2C1=O)C1CC1 | full-length NS3/NS4A-2 (HCV NS3 protease) (Hepatitis C virus genotype 1a) | < 1 µM |
| CC(C)(C)OC(=O)N[C@H]1CCCCC/C=C\[C@@H]2C[C@@]2(C(=O)NS(=O)(=O)c2cccs2)NC(=O)[C@@H]2CCCN2C1=O | full-length NS3/NS4A-2 (HCV NS3 protease) (Hepatitis C virus genotype 1a) | < 10 µM |
| CC(C)(C)OC(=O)N[C@H]1CCCCC/C=C\[C@@H]2C[C@@]2(C(=O)NS(=O)(=O)C2CC2)NC(=O)[C@@H]2C[C@@H](OC(=O)N3Cc4ccc(F)cc4C3)CN2C1=O | full-length NS3/NS4A-2 (HCV NS3 protease) (Hepatitis C virus genotype 1a) | < 0.1 µM |
| CN(C)[C@H]1CCCCC/C=C\[C@@H]2C[C@@]2(C(=O)NS(=O)(=O)C2CC2)NC(=O)[C@@H]2C[C@@H](OC(=O)N3Cc4cccc(F)c4C3)CN2C1=O | full-length NS3/NS4A-2 (HCV NS3 protease) (Hepatitis C virus genotype 1a) | < 1 µM |
| O=C1N[C@]2(C(=O)NS(=O)(=O)C3CC3)C[C@H]2/C=C\CCCCC[C@H](Nc2nc(C(F)(F)F)cs2)C(=O)N2C[C@H](OC(=O)N3Cc4cccc(F)c4C3)C[C@@H]12 | full-length NS3/NS4A-2 (HCV NS3 protease) (Hepatitis C virus genotype 1a) | < 0.1 µM |
| CCCNC(=O)[C@@]12C[C@H]1/C=C\CCCCC[C@H](NC(=O)OC(C)(C)C)C(=O)N1C[C@H](OC(=O)N3Cc4ccccc4C3)C[C@H]1C(=O)N2 | full-length NS3/NS4A-2 (HCV NS3 protease) (Hepatitis C virus genotype 1a) | < 0.1 µM |
| CC(C)(C)OC(=O)N[C@H]1CCCCC/C=C\[C@@H]2C[C@@]2(C(=O)NS(=O)(=O)N2CCC2)NC(=O)[C@@H]2CCCN2C1=O | full-length NS3/NS4A-2 (HCV NS3 protease) (Hepatitis C virus genotype 1a) | < 10 µM |
| O=C1N[C@]2(C(=O)NCC3CC3)C[C@H]2/C=C\CCCCC[C@H](NCc2ccc(F)c(F)c2)C(=O)N2C[C@H](OC(=O)N3Cc4cccc(F)c4C3)C[C@@H]12 | full-length NS3/NS4A-2 (HCV NS3 protease) (Hepatitis C virus genotype 1a) | < 1 µM |
| O=C(NC1CCCC1)N[C@H]1CCCCC/C=C\[C@@H]2C[C@@]2(C(=O)NS(=O)(=O)C2CC2)NC(=O)C2C[C@@H](OC(=O)N3Cc4cccc(Cl)c4C3)CN2C1=O (some centres unmarked) | full-length NS3/NS4A-2 (HCV NS3 protease) (Hepatitis C virus genotype 1a) | < 0.1 µM |

Source listed as patent US7829665B2.
